Target: HDAC2-CoREST (Homo sapiens, UniProt Q92769)
Construct: We used HDAC complexes with the most components that could be stably expressed, with full-length proteins where feasible; made in house; host or cells: HEK293F
Sequence (Q92769 whole entry, other chains not shown): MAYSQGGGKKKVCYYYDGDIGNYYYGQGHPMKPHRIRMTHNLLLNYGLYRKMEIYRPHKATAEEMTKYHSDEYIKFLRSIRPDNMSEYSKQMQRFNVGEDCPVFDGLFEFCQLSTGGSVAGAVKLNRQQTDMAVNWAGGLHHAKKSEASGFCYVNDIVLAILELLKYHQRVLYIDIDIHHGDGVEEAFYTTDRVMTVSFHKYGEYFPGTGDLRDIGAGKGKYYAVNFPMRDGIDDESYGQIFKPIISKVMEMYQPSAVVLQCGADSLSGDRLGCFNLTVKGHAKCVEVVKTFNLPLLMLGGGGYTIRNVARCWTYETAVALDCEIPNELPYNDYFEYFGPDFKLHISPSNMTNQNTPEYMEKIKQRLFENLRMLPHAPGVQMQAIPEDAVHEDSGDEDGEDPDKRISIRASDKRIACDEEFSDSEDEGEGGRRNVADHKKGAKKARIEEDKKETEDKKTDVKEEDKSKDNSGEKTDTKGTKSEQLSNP
Sequence (Q9UKL0 86-485 partner limits assumed, other chains not shown): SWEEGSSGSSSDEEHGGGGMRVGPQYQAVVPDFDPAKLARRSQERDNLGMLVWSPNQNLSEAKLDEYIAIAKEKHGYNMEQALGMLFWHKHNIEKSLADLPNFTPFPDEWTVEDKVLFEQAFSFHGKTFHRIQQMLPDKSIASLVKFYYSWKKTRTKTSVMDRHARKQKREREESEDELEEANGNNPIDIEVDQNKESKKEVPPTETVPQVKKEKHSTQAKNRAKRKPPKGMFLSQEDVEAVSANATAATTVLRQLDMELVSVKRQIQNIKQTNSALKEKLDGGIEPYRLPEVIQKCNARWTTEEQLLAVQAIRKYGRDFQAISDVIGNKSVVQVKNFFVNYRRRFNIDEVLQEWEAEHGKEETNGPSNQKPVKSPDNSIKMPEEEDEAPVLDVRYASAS
Test: fluorescent HDAC assay (Boc-(Ac)Lys-AMC), HDAC2-CoREST complex
Assay type: biochemical
Conditions: +IP6 (100 μM InsP6)
Procedure: Class I HDAC complexes were expressed and purified from mammalian HEK293F cells. […] We explored seven different HDAC complexes: five with HDAC1 (CoREST, MIER1, MiDAC, NuRD, and RERE); one with HDAC2 (CoREST), and one with HDAC3 (SMRT). […] the bottom of gel. […] Concentration of the protein was determined using a protein assay dye reagent (Bio-Rad). […] The concentration of the protein sample in mg/mL was then calculated by multiplying by ‘17’, which represents a factor calculated from a BSA standard curve. […]
Measurement Kind: IC50 (µM)

P: Nc1ccc(-c2ccncc2)cc1NC(=O)c1cnc(N2CCNCC2)cn1
Q: Nc1ccccc1NC(=O)c1cnc(N2CCNCC2)cn1
Query: Between P and Q , which one shows the smaller IC50 number? State the label of the item chosen.
Reply: Q

These data points were gathered from paper PMC12512194.
